- test-description: in vivo
- condition-parameters: female, Sprague-Dawley, rat, plasma, oral
parameter: bioavailability (%)
# unit: % | format: bare number

Q: Look up bioavailability for this compound: COc1cc(C(=O)c2c[nH]c(-c3ccc(Cl)cc3)n2)cc(OC)c1OC [12fa]
A: 35

----------
- test-description: Metabolic stability in monkey liver microsomes
- Type: in vitro ADME
- condition-parameters: monkey, monkey liver microsomes, pH 7.4; Table 20; read-out: Half life in Monkey liver microsome
Catalogue of molecules with associated half-life at 0.5 μM

COc1cc(-c2nccc3ccc(-c4ccc5[nH]ccc5c4)cc23)cc(OC)c1OC :: 16 min
Fc1ccc(-c2nccc3ccc(-c4ccc5[nH]ccc5c4)cc23)cc1 :: 9 min
c1cc2ccc(-c3ccc4[nH]ccc4c3)cc2c(-c2ccc3[nH]ccc3c2)n1 :: 13 min
COc1cc(C(=O)c2csc(-c3ccc(O)cc3)n2)cc(OC)c1OC :: 8 min

Q: What does the record list as half-life at 0.5 μM for COc1cc(C(=O)c2csc(-c3ccccc3)n2)cc(OC)c1OC ?
A: < 5 min

----------
- test-description: in vivo
- condition-parameters: female, Sprague-Dawley, rat, plasma, po, 10 mg/kg
parameter: bioavailability (%)
State just the number; it will be interpreted in %.

Q: What value of measured bioavailability is listed for COc1cc(C(=O)c2c[nH]c(-c3ccc(Cl)cc3)n2)cc(OC)c1OC [12fa] ?
A: 35

----------
- Tested on: A375
- test-description: SRB cytotoxicity assay, A375 human melanoma cells
- Type: cell-based
- condition-parameters: Table 12, 48 h; read-out: IC50 ± SEM A375
parameter: IC50
State the value, then name its unit.

Q: Param item = O=C(c1ccc(F)cc1)c1c[nH]c(-c2ccc(O)cc2)n1 [12kb] ; retrieve measured IC50.
A: 10 µM

----------
- System: MDA-MB-435/LCCMDR1
- test-description: SRB cytotoxicity assay, multidrug-resistant MDA-MB-435/LCCMDR1 melanoma cells
- Format: cell-based, human
- condition-parameters: Homo sapiens; Table 14C; read-out: IC50 ± SEM MDA-MB-435/LCC6MDR1
parameter: IC50 (µM)
API: value field is a number in µM; no unit string.

Q: Lab request: please report IC50 under test system MDA-MB-435/LCCMDR1 for CCCc1[nH]c(Cc2cc(OC)c(OC)c(OC)c2)nc1-c1ccccc1 [102d]
A: 15.9

----------
- System: MDA-MB-435/LCCMDR1
- test-description: SRB cytotoxicity assay, multidrug-resistant MDA-MB-435/LCCMDR1 melanoma cells
- Assay type: cell-based, human
- condition-parameters: Homo sapiens; Table 14A, multidrug-resistant cell line, n = 3; read-out: IC50 ± SEM MDA-MB-435/LCC6MDR1
parameter: IC50

Q: What IC50 value was documented for this molecule, O=C(c1ccc(F)cc1)c1cn(S(=O)(=O)c2ccccc2)c(-c2ccc(Cl)cc2)n1 [11fb] ?
A: 35 nM

----------
- test-description: in vivo
- condition-parameters: Sprague-Dawley, rat, plasma, iv, […]
parameter: Vd (L/kg)
// return numeric value only (unit: L/kg, not printed)

Q: Would you kindly share the measured Vd for COc1cc(C(=O)c2csc(-c3ccccc3)n2)cc(OC)c1OC ?
A: 7.6

----------
- System: melanoma and prostate cancer cell lines
- test-description: SRB cytotoxicity, summary or average over melanoma and prostate cancer cell lines
- Format: cell-based
parameter: antiproliferative activity in words

CNCc1ccc(-c2nc(C(=O)c3cc(OC)c(OC)c(OC)c3)cs2)cc1.Cl :: abrogated activity
COc1cc(C(=O)c2csc(-c3ccc(CN(C)C)cc3)n2)cc(OC)c1OC.Cl :: abrogated activity
